In this section, each of the molecules is paired with its reported growth inhibition.
- Procedure summary: inhibition of 3D7 malaria parasite growth – strain 3D7 (AID 2306);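 also: 0% = DMSO wells and 100% = chloroquine plus artemisinin control wells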
- Experimental context: P. falciparum 3D7 erythrocytic growth, LDH absorbance, 72 h; at 2 µM; stronger effect = higher value
Write the number in % without appending the unit.

// `CNCc1ccc2nc(-c3coc(Cc4cc(Cl)ccc4OCC(C)C)n3)[nH]c2c1` : growth inhibition value = 101

// `COc1ccc(NC(=O)[C@H](CC(C)C)Nc2cc(C)nc(NCC3CCCCC3)n2)cc1` : growth inhibition value = 101

New cases:
// `Oc1cccc2ccc(Nc3ccccn3)nc12` : growth inhibition value = 99

// COc1ccc2nccc(N3CCC(NCCNS(=O)(=O)c4ccc5c(c4)NC(=O)CS5)C3)c2n1 (stereo not given) : growth inhibition value = 97

// CN1CCN(c2cccc(Nc3nccc(NCC(O)c4ccccc4)n3)c2)CC1 (stereo not given) : growth inhibition value = 101
